test system: Evolocumab; assay: Viscosity of Evolocumab formulated in acetate buffer pH 5.0 with single excipients (mVROC microfluidic viscometer, 20° C.); format: physicochemical; settings: protein concentration 180 mg/ml (Bradford assay), pH 5.0; 150 mM pyridoxine or thiamine hydrochloride; 5 mM cyanocobalamin; 25 mM quinine hydrochloride; 75 mM paracetamol
Structures can show the parent of a compound that is named as a salt.
Readout Label: viscosity of a Evolocumab formulation

[
  {
    "Compound": "Cc1ncc(CO)c(CO)c1O [pyridoxine]",
    "Assayed Target": "Evolocumab",
    "Recorded Measurement": "reduced"
  },
  {
    "Compound": "Cc1ncc(C[n+]2csc(CCO)c2C)c(N)n1 [thiamine hydrochloride]",
    "Assayed Target": "Evolocumab",
    "Recorded Measurement": "reduced"
  }
]

Ref: patent US20230279146A1
